Would you mind telling me the reported log10 MFC of each entry?
Test system: Trichoderma viride
Assay: Antifungal activity against Trichoderma viride IAM 5061 treated for 72 hrs followed by sub-cultivated for 5 days by serial dilution method
Type: functional
Scale: log10; quantity: MFC; unit before log: µM

Compound	log10 MFC
CCCCNc1nnc(Cc2cc(OC)c(OC)cc2S(=O)(=O)N(C)C)o1	2.11
COc1cc(Cc2n[nH]c(=O)n2C(C)(C)C)c(S(=O)(=O)N(C)C)cc1OC	2.40
c1ccc(-c2ccc(C(c3ccccc3)n3ccnc3)cc2)cc1 (stereo not given)	2.90
CCCCNc1nnc(Cc2cc(OC)c(OC)cc2S(=O)(=O)N(C)C)s1	2.08
COc1cc(Cc2nnc(NC(C)(C)C)o2)c(S(=O)(=O)N(C)C)cc1OC	2.11
CCCNc1nnc(Cc2cc(OC)c(OC)cc2S(=O)(=O)N(C)C)s1	2.11
CCCCn1c(Cc2cc(OC)c(OC)cc2S(=O)(=O)N(C)C)n[nH]c1=O	1.78
CCn1c(Cc2cc(OC)c(OC)cc2S(=O)(=O)N(C)C)n[nH]c1=O	2.43
COc1cc(Cc2n[nH]c(=S)n2C(C)(C)C)c(S(=O)(=O)N(C)C)cc1OC	2.38

Need log10 MFC, item "CCCn1c(Cc2cc(OC)c(OC)cc2S(=O)(=O)N(C)C)n[nH]c1=O" 2.11

From: ChEMBL document CHEMBL1944580
